- assay-summary: FK506 blood concentration measurements (ELISA, whole blood)
- Format: in vivo, mice
- experimental-context: 0.075 mg/kg orally per day

{"columns": ["smiles-str", "FK506 blood concentration / pg/mL"],
 "data": [
  ["C=CC[C@@H]1/C=C(\\C)C[C@H](C)C[C@H](OC)[C@H]2O[C@@](O)(C(=O)C(=O)N3CCCC[C@H]3C(=O)O[C@H](/C(C)=C/[C@@H]3CC[C@@H](O)[C@H](OC)C3)[C@H](C)[C@@H](O)CC1=O)[C@H](C)C[C@@H]2OC", 452]
]}

* * *

- assay-summary: FK506 blood concentration measurements (ELISA, whole blood)
- Assay type: in vivo, mice
- experimental-context: 0.2 mg/kg orally per day
- Experimental: FK506 concentration in whole blood samples of mice was measured using colorimetric FK506 Elisa Kit (Abnova, Taipei, […]) according to the manufacturer's protocol. Briefly, 25 μL of whole blood samples and standard solutions containing 0, 2, 10 and 50 ng/mL FK506 were analyzed by OD measurements at 450 nanometer (nm) wavelength.

{"columns": ["smiles-str", "unit-abbrev", "FK506 blood concentration"],
 "data": [
  ["C=CC[C@@H]1/C=C(\\C)C[C@H](C)C[C@H](OC)[C@H]2O[C@@](O)(C(=O)C(=O)N3CCCC[C@H]3C(=O)O[C@H](/C(C)=C/[C@@H]3CC[C@@H](O)[C@H](OC)C3)[C@H](C)[C@@H](O)CC1=O)[C@H](C)C[C@@H]2OC", "pg/mL", 535]
]}
